conditions: 318.15 K, surface light scattering
So I've got a bunch of compounds here, and I need their surface tension liquid-gas values.
Answers are plain numbers, in mN/m.

Example entries begin here.
So for CCCCCCCO [heptan-1-ol] , the logged surface tension liquid-gas turned out to be 24.55

So for CCCO [propan-1-ol] , the logged surface tension liquid-gas turned out to be 21.68

So for CCO [ethanol] , the logged surface tension liquid-gas turned out to be 20.29

So for CC(C)CC(C)(C)C [2,2,4-trimethylpentane] , the logged surface tension liquid-gas turned out to be 16.56

So for CCCCCCC [heptane] , the logged surface tension liquid-gas turned out to be 17.7

So for CCCCCCO [hexan-1-ol] , the logged surface tension liquid-gas turned out to be 23.58

New cases:
So for CCCCCO [pentan-1-ol] , the logged surface tension liquid-gas turned out to be 23.65

====

conditions: 313.15 K, surface light scattering
Please respond with 1 (yes) when measured surface tension liquid-gas is strictly beneath 20 mN/m, and with 0 (no) in all other cases.

Completed entries (count: 5):
Say whether its surface tension liquid-gas is strictly beneath 20 mN/m. Entry: CCCCCCO [hexan-1-ol] 0 (no)

Say whether its surface tension liquid-gas is strictly beneath 20 mN/m. Entry: CC(C)CC(C)(C)C [2,2,4-trimethylpentane] 1 (yes)

Say whether its surface tension liquid-gas is strictly beneath 20 mN/m. Entry: CCCCCCC [heptane] 1 (yes)

Say whether its surface tension liquid-gas is strictly beneath 20 mN/m. Entry: CCCO [propan-1-ol] 0 (no)

Say whether its surface tension liquid-gas is strictly beneath 20 mN/m. Entry: CCO [ethanol] 0 (no)

New cases:
Say whether its surface tension liquid-gas is strictly beneath 20 mN/m. Entry: CCCCCCCO [heptan-1-ol] 0 (no)

Say whether its surface tension liquid-gas is strictly beneath 20 mN/m. Entry: CCCCCO [pentan-1-ol] 0 (no)

====

settings: 298.15 K, surface light scattering
result-type: surface tension liquid-gas (mN/m)
Answers are plain numbers, in mN/m.

Example entries begin here.
So for CCCCCCO [hexan-1-ol] , the logged surface tension liquid-gas turned out to be 25.56

So for CCCCCCC [heptane] , the logged surface tension liquid-gas turned out to be 19.69

So for CC(C)CC(C)(C)C [2,2,4-trimethylpentane] , the logged surface tension liquid-gas turned out to be 18.3

Batch request: surface tension liquid-gas per item, same order as input.
1. CCCO [propan-1-ol]
2. CCCCCCCO [heptan-1-ol]

[23.31, 26.46]

Batch request: surface tension liquid-gas per item, same order as input.
1. CCCCCO [pentan-1-ol]
2. CCO [ethanol]

1: 25.29; 2: 21.85

====

conditions: 308.15 K, surface light scattering
Numbers after ± are expanded uncertainties.
result-type: surface tension liquid-gas
The number alone won't do; follow it with the unit.

Example entries begin here.
So for "CC(C)CC(C)(C)C" , the logged surface tension liquid-gas turned out to be 17.43 ± 0.18 mN/m

So for "CCCCCCC" , the logged surface tension liquid-gas turned out to be 18.67 ± 0.21 mN/m

So for "CCCCCO" , the logged surface tension liquid-gas turned out to be 24.46 ± 0.27 mN/m

So for "CCO" , the logged surface tension liquid-gas turned out to be 21.04 ± 0.22 mN/m

Batch request: surface tension liquid-gas per item, same order as input.
1. CCCO
2. CCCCCCCO
3. CCCCCCO

1. 22.52 ± 0.23 mN/m
2. 25.43 ± 0.28 mN/m
3. 24.65 ± 0.28 mN/m

====

conditions: 323.15 K, surface light scattering
Numbers after ± are expanded uncertainties.
So I've got a bunch of compounds here, and I need their surface tension liquid-gas values.
The number alone won't do; follow it with the unit.

Batch request: surface tension liquid-gas per item, same order as input.
1. CCCCCCCO [heptan-1-ol]
2. CC(C)CC(C)(C)C [2,2,4-trimethylpentane]
3. CCCCCCO [hexan-1-ol]
4. CCCCCO [pentan-1-ol]
5. CCCO [propan-1-ol]

["24.03 ± 0.27 mN/m", "16.2 ± 0.2 mN/m", "23.21 ± 0.26 mN/m", "23.21 ± 0.26 mN/m", "21.27 ± 0.22 mN/m"]

====

So I've got a bunch of compounds here, and I need their surface tension liquid-gas values.
conditions: 303.15 K, surface light scattering
Numbers only, in mN/m.

Example entries begin here.
So for "CCCCCCC" , the logged surface tension liquid-gas turned out to be 19.13

So for "CCCCCO" , the logged surface tension liquid-gas turned out to be 24.87

So for "CCCCCCCO" , the logged surface tension liquid-gas turned out to be 25.93

So for "CCO" , the logged surface tension liquid-gas turned out to be 21.41

So for "CCCO" , the logged surface tension liquid-gas turned out to be 22.9

So for "CCCCCCO" , the logged surface tension liquid-gas turned out to be 24.95

New cases:
So for "CC(C)CC(C)(C)C" , the logged surface tension liquid-gas turned out to be 17.9
